Measurement Target: h-5-HT6 receptor (Homo sapiens)
Sequence (P50406 whole entry): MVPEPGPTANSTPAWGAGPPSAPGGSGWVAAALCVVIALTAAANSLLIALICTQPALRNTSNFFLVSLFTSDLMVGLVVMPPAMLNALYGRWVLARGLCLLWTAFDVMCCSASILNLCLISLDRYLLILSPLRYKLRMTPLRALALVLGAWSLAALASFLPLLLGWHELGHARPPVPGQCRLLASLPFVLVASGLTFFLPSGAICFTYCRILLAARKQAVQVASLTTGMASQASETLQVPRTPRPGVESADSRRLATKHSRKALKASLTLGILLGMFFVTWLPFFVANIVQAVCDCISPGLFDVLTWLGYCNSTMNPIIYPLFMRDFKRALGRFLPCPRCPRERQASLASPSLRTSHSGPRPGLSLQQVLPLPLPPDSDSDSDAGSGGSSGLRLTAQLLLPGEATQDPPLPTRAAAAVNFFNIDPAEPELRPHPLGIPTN

>  <Molecule>
CN1CCN(c2cccc3cc(S(=O)(=O)c4cccc(F)c4)cnc23)CC1 [GSK-215083, reference compound]

>  <Ki [nM]>
0.34

$$$$

----------
Assay Protocol: Rat microsome stability
Type: in vitro ADME
Condition Description: rat microsomes, read-out: Rat microsome T1/2

>  <Compound>
CN1CCN(c2cccc3cc(S(=O)(=O)c4cccc(F)c4)cnc23)CC1 [GSK-215083, reference compound]

>  <half-life, h>
1.04

$$$$
>  <Compound>
CN1CCC(c2cccc3cc(S(=O)(=O)c4ccccn4)cnc23)CC1 [Example 1]

>  <half-life, h>
1.73

$$$$

----------
Measurement Target: 78 targets (CEREP) other than the 5-HT6 receptor
Assay Protocol: CEREP panel of 78 targets
Condition Description: all but the 5-HT2B and 5-HT2A receptors, read-out: Ki at ancillary targets
pKi: −log10 of the molar value.

>  <Input Smiles>
CN1CCC(c2cccc3cc(S(=O)(=O)c4ccccn4)cnc23)CC1

>  <pKi>
< 6.00

$$$$

----------
Measurement Target: h-5-HT2A receptor (Homo sapiens, UniProt P28223)
Sequence (P28223 whole entry): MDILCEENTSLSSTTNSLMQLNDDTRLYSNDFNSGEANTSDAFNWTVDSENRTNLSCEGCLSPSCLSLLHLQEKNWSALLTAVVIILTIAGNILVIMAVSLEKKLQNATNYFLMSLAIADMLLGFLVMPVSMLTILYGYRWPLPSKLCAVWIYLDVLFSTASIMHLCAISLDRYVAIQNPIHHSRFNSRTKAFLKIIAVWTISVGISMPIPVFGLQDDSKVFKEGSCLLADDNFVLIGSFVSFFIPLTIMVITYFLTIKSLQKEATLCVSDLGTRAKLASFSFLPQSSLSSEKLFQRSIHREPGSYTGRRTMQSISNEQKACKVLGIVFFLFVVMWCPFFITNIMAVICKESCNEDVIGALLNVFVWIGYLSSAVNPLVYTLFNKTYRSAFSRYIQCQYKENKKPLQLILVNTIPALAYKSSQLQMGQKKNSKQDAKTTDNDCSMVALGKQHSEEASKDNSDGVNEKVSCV
Measured Quantity: Ki (nM)

>  <Compound>
CN1CCN(c2cccc3cc(S(=O)(=O)c4cccc(F)c4)cnc23)CC1 [GSK-215083, reference compound]

>  <Measured Quantity>
Ki

>  <Value>
0.395

$$$$

----------
Measurement Target: Rat 5-HT6 (Rattus norvegicus)
Sequence (P31388 whole entry): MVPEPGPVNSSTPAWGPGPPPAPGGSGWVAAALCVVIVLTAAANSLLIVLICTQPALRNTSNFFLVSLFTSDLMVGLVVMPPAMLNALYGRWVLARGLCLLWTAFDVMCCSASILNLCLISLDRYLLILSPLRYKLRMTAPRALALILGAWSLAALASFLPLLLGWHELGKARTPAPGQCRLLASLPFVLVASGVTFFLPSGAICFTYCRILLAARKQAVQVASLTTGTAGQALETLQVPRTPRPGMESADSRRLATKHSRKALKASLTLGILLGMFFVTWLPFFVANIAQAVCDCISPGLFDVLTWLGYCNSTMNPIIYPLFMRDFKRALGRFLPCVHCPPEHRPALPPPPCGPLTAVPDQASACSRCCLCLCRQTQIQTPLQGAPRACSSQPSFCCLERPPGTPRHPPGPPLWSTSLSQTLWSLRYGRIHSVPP
Assay Protocol: Rat 5-HT6 binding
pKi: −log10 of the molar value.
Measured Quantity: pKi

>  <Compound>
CN1CCN(c2cccc3cc(S(=O)(=O)c4cccc(F)c4)cnc23)CC1 [GSK-215083, reference compound]

>  <Measurement Target>
Rat 5-HT6 (Rattus norvegicus)

>  <Value>
9.80

$$$$
